Every entry's value here was drawn from paper PMC4336329.

Examples of compounds with documented hERG current change (%, negative = inhibition) at 10uM follow.
Biological target: human ether-à-go-go-related gene (hERG) potassium channel (human);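 note: peak tail current of the secondary pulse compared with the same well before compound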
Sequence (Q12809 whole entry, looked up): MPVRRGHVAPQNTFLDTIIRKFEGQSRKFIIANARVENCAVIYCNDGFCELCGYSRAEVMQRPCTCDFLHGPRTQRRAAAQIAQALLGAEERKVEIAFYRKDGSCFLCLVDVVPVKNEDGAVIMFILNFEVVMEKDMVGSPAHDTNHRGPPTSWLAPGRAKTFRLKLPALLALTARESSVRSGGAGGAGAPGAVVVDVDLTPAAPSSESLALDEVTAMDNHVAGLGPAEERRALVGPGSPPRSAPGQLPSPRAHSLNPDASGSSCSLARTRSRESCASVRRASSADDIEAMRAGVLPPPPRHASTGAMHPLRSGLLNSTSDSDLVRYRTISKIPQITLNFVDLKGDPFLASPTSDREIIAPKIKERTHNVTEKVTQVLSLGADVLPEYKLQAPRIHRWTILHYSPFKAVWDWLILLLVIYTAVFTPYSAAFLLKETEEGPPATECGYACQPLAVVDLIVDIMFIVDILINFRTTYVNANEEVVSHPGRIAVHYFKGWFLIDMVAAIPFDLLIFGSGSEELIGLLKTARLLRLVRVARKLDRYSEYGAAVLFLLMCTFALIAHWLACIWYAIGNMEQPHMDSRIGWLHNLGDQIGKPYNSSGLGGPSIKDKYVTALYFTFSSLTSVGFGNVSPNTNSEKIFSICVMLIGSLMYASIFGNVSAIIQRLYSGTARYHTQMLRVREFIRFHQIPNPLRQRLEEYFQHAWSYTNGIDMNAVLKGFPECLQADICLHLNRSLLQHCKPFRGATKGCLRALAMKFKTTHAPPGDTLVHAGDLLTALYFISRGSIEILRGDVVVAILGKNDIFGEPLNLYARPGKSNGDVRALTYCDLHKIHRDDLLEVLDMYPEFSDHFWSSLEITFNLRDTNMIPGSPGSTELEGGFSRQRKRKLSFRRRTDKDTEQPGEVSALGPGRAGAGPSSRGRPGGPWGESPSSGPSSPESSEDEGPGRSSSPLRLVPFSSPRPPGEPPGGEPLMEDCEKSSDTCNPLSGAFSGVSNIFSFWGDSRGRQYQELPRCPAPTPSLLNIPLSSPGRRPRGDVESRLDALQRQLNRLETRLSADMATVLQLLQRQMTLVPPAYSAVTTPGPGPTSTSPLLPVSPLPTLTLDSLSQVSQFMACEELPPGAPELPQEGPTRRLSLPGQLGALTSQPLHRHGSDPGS
Experiment: primary screen, population patch clamp on CHO cells stably expressing hERG; higher = less effect of the substance
Among all 310,000 compounds or so, about 14,000 (4.5%) showed an effect of 50% or more. The effect is printed as a negative number. Many of the other results were omitted from the sample, so strong results are more common in it than they were.
Write it as a number; the unit % goes unstated.

# count of solved cases: 6
NC(=O)CC(NC(=O)c1cccc(Br)c1)c1ccc(NCC2CC2)c([N+](=O)[O-])c1 (stereo not shown)    -65.4
CC(=O)Nc1ccc(SC[C@H](Cc2ccccc2)N2CCN(CC(C)C)CCC2=O)cc1    -44.2
COc1ccc(CNC(=O)c2cc(-c3cccs3)on2)cc1    -2.38
C=CCN1C(=O)c2ccc(C(=O)OCC(=O)N3CCN(c4ccccc4)CC3)cc2C1=O    7.02
CC(=O)Nc1ccc(SC[C@H](c2ccccc2)N2CCN(CCc3ccccc3)CCC2=O)cc1    -75.1
O=S(=O)(Nc1nc2ccccc2nc1NCc1ccco1)c1cccs1    4.13

Next up:
**Q:** Query: hERG current change (%, negative = inhibition) at 10uM; subject: CCNc1nc(NCC)n2c(SCC(=O)Nc3ccccc3Cl)nnc2n1
**A:** 11
